B1: Hairpin Ribozyme (parent)
chain: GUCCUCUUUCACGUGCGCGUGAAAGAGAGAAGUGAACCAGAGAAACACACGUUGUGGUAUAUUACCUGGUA

Variants of: B1
Test: self-cleavage, relative activity (ratio to wild type); higher = more cleavage; co-transcriptional
QUANTITY KIND: self-cleavage

sequence=GUCCUCUUUCACGUGCGCGUGAAAGAGAGAAGUGAACCAGAGAAACACACGUUGUGGUAUAUUUGCUGGUA result=0.188
sequence=GUCCUCUUUCACGUGCGCGUGAAAGAGAGAAGUGAACCAGAGAAUCAUACGUUGUGGUAUAUUACCUGGUA result=0.135
sequence=GUCCUCUUUCACGUGCGCGUGAAAGAGAGAAGUGAACCAGUGAAACACACGUGGUGGUAUAUUACCUGGUA result=1.16
sequence=GUCCUCUUUCACGUGCGCGUGAAGGAGAGAAGUGAACCAGAGAAACACACGUUGUGGCAUAUUACCUGGUA result=0.804
sequence=GUCCGCUUUCACGUGCGCGUGAAAGAGAGAAGUGAACCAGAGAAACACACGUUGUGGGAUAUUACCUGGUA result=0.0427
sequence=GUCCUCUUUCACGUGCGCGUGAAAGAGAGAAGUGAACCAGACAAACACACGUUGUCGUAUAUUACCUGGUA result=0.159
sequence=GUCCUCUUUGACGUGCGCGUGAAAGAGAGAAGUGAACCAGAGAAACACACGUUGUGGUCUAUUACCUGGUA result=0.127
sequence=GGCCUCUUUCACGUGCGCGUGAAUGAGAGAAGUGAACCAGAGAAACACACGUUGUGGUAUAUUACCUGGUA result=0.238
sequence=GACCUCUUUCACGUGCGCGUGAAAGACAGAAGUGAACCAGAGAAACACACGUUGUGGUAUAUUACCUGGUA result=0.108
sequence=GUCCUCUUUCACGUACGCGUGAAAGAGACAAGUGAACCAGAGAAACACACGUUGUGGUAUAUUACCUGGUA result=0.106
sequence=GUCCUCUUUUACGUGCGCGUGAAAGAGAGAAGUGAACCAGAGAAACACUCGUUGUGGUAUAUUACCUGGUA result=0.0687
sequence=GUCCUGUUUCACGUGCGCGUGAAAGAGAGAAGUGAACCAGAGAAACACACGUUGUGGUACAUUACCUGGUA result=0.618
sequence=GUCCUCUUUCACGUGAGCGUGAAAGAGAGAAGUGAACCAGAGAAACAGACGUUGUGGUAUAUUACCUGGUA result=0.155
sequence=GUCCUCUUUCACGUGCGCGUGAAAGAGAGAAGUGAACCAGAGAAACACACGUUGUAGUAUAUUACCUUGUA result=0.146
sequence=GUCCUCUUUCACGUGCGCGCGAAAGGGAGAAGUGAACCAGAGAAACACACGUUGUGGUAUAUUACCUGGUA result=1.06
sequence=GUCCUCUUUCACGUGCGCGUGAAAGAGAGAAGUGAACCAGAGAAACACUCGUUGUGAUAUAUUACCUGGUA result=0.192
sequence=GUCCUCUUUCACGUGCGCGUGAAAGAGAGACGUGAACCAGAGAAACACACGUUGUCGUAUAUUACCUGGUA result=0.115
sequence=GUCCCCUUUCACGUGCGCGUGAAAGAGAGAAGUGAACCAGUGAAACACACGUUGUGGUAUAUUACCUGGUA result=1.06
sequence=GUCCUCUUUCACGUGCGCGUGAAAGAGAGAAGUGAACCAGAGAGGCACACGUUGUGGUAUAUUACCUGGUA result=0.228
sequence=GUCCUCUUUCACGUGCGCGUGAAAGAGAGAAGUGAACCAGUGAAACACCCGUUGUGGUAUAUUACCUGGUA result=0.238
sequence=GUCCUCUUUCACGUGCGCCUGAAAGAGAGAAGUGAACCAGAGAAACACACGUUGUGGUUUAUUACCUGGUA result=0.19
sequence=GUCCUCUUUCACGUGCGCGUGAAAGAGAGAAGUGAACCAGAGAAACCCACGUUGUGGCAUAUUACCUGGUA result=0.318
sequence=GACCUCUUUUACGUGCGCGUGAAAGAGAGAAGUGAACCAGAGAAACACACGUUGUGGUAUAUUACCUGGUA result=0.208
sequence=GUCCUCUUUCACGUGCGCGUGAAAGAGAGAAGUGAACCAGAGUAACACACGUUGUCGUAUAUUACCUGGUA result=0.0883
sequence=GUCCUCUUUCACGAGCGCGUGAAAGAGAGAAAUGAACCAGAGAAACACACGUUGUGGUAUAUUACCUGGUA result=0.106
sequence=GUACUCUUUCACGUGCGCGUGAAAGAGAGAAGUGAACGAGAGAAACACACGUUGUGGUAUAUUACCUGGUA result=0.156
sequence=GUCCUCUUUCACGUGCGCGUGAAAGAGAGAAGGGAACCAGACAAACACACGUUGUGGUAUAUUACCUGGUA result=0.166
sequence=GUCCUCUUUCACGUGCGCGUGAAAGAGAGAAGUGAACCAGAGAAACACAAGUUGUGAUAUAUUACCUGGUA result=0.138
sequence=GUCCUCUUUCACGUGCGCGUGAAAGAGAGAAGUGAACCAGAGGAACACACGUUGUGGUAUAUUACCUGAUA result=0.0947
sequence=GUCCUCUUUCACGUGCGCGUGAAAGAGAGAAGUGAACCAGAGAUACACACGUUGUGGUAUAUUACCUGGUU result=0.256
sequence=GUCCUCUUUCACGUGCGCGUGAAAAAGAGAAGUGAACCAGAGAAACACACGUUUUGGUAUAUUACCUGGUA result=0.392
sequence=GUCCUCUUUCACGUGCGCGUGAAAGAGAGAAGUGAACCAGAGAAACACACGUUGUGGAAUAUUACCUGGUU result=0.391
sequence=GUCCUCUUUCACGUGCGCGUGAAAGAGAGAAGUGAACCAGAGAAACACACGUUGUGGUAAAUUUCCUGGUA result=0.0988
sequence=GUCCUCUUUCAUGUGCGCGUGAAAGAGAGAAGUGAACCAGAGAAACACACGAUGUGGUAUAUUACCUGGUA result=0.92
sequence=GUCCUCUUUCACGUGCGCGUUAAAGAGUGAAGUGAACCAGAGAAACACACGUUGUGGUAUAUUACCUGGUA result=0.688
sequence=GUCCUCUUUCACGUGCGCGUGAAAGAGAGAAGUGAACCAGAGAAACACACGAUGUGGUAUAAUACCUGGUA result=0.24
sequence=GUCCUCUUUCACGUGCGCGUGAAAGAGAGAAGUGAUCCAGAGAAACACACGUUUUGGUAUAUUACCUGGUA result=0.325
sequence=GUGCUCUUUCACGUGCUCGUGAAAGAGAGAAGUGAACCAGAGAAACACACGUUGUGGUAUAUUACCUGGUA result=0.365
sequence=GUCCUCUUUCACCUGCGCGUGAAAGAGAGAAGUGAACCAGAGAAACACACGUUGUGGUAUAGUACCUGGUA result=0.185
sequence=GUCCUCUUUCACGUGCGCGUGAAAGAGAAAAGUGAACCAGAGAAACACCCGUUGUGGUAUAUUACCUGGUA result=0.179
sequence=GUCCUAUUUCACGUGCGCGUGAAGGAGAGAAGUGAACCAGAGAAACACACGUUGUGGUAUAUUACCUGGUA result=0.45
sequence=GUCCUCUUUCACGUGCGGGAGAAAGAGAGAAGUGAACCAGAGAAACACACGUUGUGGUAUAUUACCUGGUA result=0.772
sequence=GUCCUCUUUCACGUGCGCGUGAAAGAGAGAAGGGAACCAGAGAAACACACGUUGUGGUAUAUUACCUAGUA result=0.151
sequence=GUCCUCUUUCACGUGCGCGUGAAAGAGAGCAGUGAAACAGAGAAACACACGUUGUGGUAUAUUACCUGGUA result=0.0529
sequence=GUCCUCUUUCACGUGCGCGUGAAAGAAAGAAGUGAACCAUAGAAACACACGUUGUGGUAUAUUACCUGGUA result=0.179
sequence=GUCCUCUUCCACGUGCGCGUGAAAGAGAGAGGUGAACCAGAGAAACACACGUUGUGGUAUAUUACCUGGUA result=0.592

Numbers sourced from the RNAGym collection of RNA variant scans (doi:10.7554/elife.80360).
